As shown below, each of these molecules has a reported DC50 value.
Target: IKZF1 (Homo sapiens (Human), UniProt Q13422+Q96SW2)
Sequence (Q13422 whole entry): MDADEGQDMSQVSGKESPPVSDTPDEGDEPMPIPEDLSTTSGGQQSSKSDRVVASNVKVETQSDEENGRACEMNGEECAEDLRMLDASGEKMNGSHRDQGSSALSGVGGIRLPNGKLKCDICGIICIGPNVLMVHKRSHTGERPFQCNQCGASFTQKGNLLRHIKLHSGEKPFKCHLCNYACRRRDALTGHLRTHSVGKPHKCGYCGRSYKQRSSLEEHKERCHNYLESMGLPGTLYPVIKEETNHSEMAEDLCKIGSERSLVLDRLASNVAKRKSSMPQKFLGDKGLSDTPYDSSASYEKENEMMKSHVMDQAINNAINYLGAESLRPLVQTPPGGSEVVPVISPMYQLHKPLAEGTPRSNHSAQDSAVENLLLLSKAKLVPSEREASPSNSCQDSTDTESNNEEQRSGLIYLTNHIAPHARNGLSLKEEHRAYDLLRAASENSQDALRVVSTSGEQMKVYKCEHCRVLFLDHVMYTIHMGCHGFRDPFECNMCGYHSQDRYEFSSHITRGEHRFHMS
Sequence (Q96SW2 whole entry): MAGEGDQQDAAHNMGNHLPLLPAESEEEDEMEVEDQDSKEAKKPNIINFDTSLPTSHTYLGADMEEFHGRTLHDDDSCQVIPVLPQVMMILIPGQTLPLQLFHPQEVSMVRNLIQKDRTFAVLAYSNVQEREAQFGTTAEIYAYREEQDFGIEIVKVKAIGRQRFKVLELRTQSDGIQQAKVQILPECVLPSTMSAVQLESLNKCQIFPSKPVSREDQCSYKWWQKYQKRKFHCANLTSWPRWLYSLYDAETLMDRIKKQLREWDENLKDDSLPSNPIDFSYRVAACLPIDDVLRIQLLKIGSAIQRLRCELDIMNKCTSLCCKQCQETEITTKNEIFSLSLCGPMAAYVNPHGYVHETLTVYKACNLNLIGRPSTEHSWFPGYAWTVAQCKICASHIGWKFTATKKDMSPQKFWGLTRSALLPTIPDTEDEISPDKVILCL
Sequence (Q16531 2-1140 partner): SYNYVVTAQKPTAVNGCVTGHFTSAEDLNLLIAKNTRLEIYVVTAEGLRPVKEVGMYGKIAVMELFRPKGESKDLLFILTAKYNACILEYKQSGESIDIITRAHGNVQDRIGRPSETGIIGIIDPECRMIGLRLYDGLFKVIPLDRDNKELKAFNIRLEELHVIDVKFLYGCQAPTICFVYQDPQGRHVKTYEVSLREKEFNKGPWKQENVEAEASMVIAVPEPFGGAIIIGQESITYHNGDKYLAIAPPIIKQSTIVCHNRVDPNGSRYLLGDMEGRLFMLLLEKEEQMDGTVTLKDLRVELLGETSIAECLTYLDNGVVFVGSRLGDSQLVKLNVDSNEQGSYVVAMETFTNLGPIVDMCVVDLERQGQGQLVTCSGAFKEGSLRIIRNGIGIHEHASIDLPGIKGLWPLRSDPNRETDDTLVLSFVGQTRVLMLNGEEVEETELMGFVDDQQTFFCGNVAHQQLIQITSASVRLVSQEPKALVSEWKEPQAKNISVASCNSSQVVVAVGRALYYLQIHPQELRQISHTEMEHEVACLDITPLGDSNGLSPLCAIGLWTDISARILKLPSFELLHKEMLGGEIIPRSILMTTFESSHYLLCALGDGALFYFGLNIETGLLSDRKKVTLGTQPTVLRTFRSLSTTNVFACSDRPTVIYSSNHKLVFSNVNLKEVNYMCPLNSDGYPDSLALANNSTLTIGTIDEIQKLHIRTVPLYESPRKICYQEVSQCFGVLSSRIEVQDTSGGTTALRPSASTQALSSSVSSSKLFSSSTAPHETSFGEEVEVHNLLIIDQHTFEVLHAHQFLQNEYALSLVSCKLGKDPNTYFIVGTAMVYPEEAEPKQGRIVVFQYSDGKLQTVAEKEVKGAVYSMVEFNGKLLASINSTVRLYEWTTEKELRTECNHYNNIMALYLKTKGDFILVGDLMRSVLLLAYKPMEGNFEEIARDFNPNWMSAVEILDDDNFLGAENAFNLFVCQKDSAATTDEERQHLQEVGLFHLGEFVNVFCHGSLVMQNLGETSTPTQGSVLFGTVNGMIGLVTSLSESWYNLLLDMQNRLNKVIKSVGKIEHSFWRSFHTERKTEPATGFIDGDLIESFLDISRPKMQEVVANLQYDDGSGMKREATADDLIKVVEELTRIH
Assay: In vitro IKZF1 HiBit Assay (HEK293T Flp-in-HiBiT-IKZF1 stable cell line)
Type: cell-based
Conditions: HEK293T Flp-in-HiBiT-IKZF1 stable cell line, 6 hrs incubation; read-out: IKZF1 HiBit DC50
Procedure: In Vitro IKZF1 HiBit Assay […] 25 nL of diluted compound is transferred to assay plates (Corning3571) using ECHO550, the final DMSO concentration @ 0.1%. […] The amount of Nano-Glo® HiBiT lytic reagent needed to perform the desired experiments is calculated. […] After briefly centrifuge, the plateis read on Envision. […] The extent of degradation (range of luminescence) from the highest to lowest concentration points was calculated to determine the Dmax. […]
outcome-measure: DC50

>>> observed_value("O=C1CCC(N2Cc3cc(-c4cc(CN5CCCCC56CC6)c5ccn(C6COC6)c5n4)ccc3C2=O)C(=O)N1 (stereo not shown)")
"> 10 µM"
>>> observed_value("Cc1cc(-c2ccc3c(c2)CN(C2CCC(=O)NC2=O)C3=O)nc2nc(CN3CCCC3)oc12 (stereo not shown)")
"> 10 µM"
>>> observed_value("Cn1ccc2c(CN3CCC(F)CC3)cc(-c3ccc4c(c3)CN(C3CCC(=O)NC3=O)C4=O)nc21 (stereo not shown)")
"0.01 to 0.1 µM"
>>> observed_value("Nc1n[nH]c2c(CN3CCCC3)cc(-c3ccc4c(c3)CN(C3CCC(=O)NC3=O)C4=O)nc12 (stereo not shown)")
"> 10 µM"

* * *

target: IKZF1 (Homo sapiens (Human), UniProt Q13422+Q96SW2); assay: In vitro IKZF1 HiBit Assay (HEK293T Flp-in-HiBiT-IKZF1 stable cell line); assay type: cell-based; details: HEK293T Flp-in-HiBiT-IKZF1 stable cell line, 6 hrs incubation; read-out: IKZF1 HiBit DC50
outcome-measure: DC50

>>> observed_value("O=C1CCC(N2Cc3c(ccc(-c4cc(CN5CCCC5)c5ccn(C6COC6)c5n4)c3F)C2=O)C(=O)N1 (stereo not shown)")
"1 to 10 nM"
>>> observed_value("CC1CCN(Cc2cc(-c3ccc4c(c3)CN(C3CCC(=O)NC3=O)C4=O)nc3c2ccn3C)CC1 (stereo not shown)")
"10 to 100 nM"
>>> observed_value("Cn1ccc2c(N3CCCC3)cc(-c3ccc4c(c3)CN(C3CCC(=O)NC3=O)C4=O)nc21 (stereo not shown)")
"> 10000 nM"
>>> observed_value("O=C1CCC(N2Cc3cc(-c4cc(CN5CCCC5)cc5cncn45)ccc3C2=O)C(=O)N1 (stereo not shown)")
"> 10000 nM"

* * *

molecular target: IKZF1 (Homo sapiens (Human), UniProt Q13422+Q96SW2); experiment: In vitro IKZF1 HiBit Assay (HEK293T Flp-in-HiBiT-IKZF1 stable cell line); type: cell-based; conditions: HEK-293T; HEK293T Flp-in-HiBiT-IKZF1 stable cell line, 6 hrs incubation; read-out: IKZF1 HiBit Dmax (%)
Dmax for assorted compounds
outcome-measure: Dmax

>>> observed_value("O=C1CCC(N2Cc3cc(-c4cc(CN5CCCC5)c5ccn(Cc6ccccc6)c5n4)ccc3C2=O)C(=O)N1 (centres unmarked)")
"< 20%"
>>> observed_value("CC(C)Nc1n[nH]c2c(CN3CCCC3)cc(-c3ccc4c(c3)CN(C3CCC(=O)NC3=O)C4=O)nc12 (centres unmarked)")
"20 to 40%"
>>> observed_value("Cn1ccc2c(CN3CCc4ccccc4C3)cc(-c3ccc4c(c3)CN(C3CCC(=O)NC3=O)C4=O)nc21 (centres unmarked)")
"20 to 40%"
>>> observed_value("O=C1CCC(N2Cc3cc(-c4cc(CN5CCC(F)CC5)c5ccn(C6COC6)c5n4)ccc3C2=O)C(=O)N1 (centres unmarked)")
"< 20%"
>>> observed_value("CN1CC(n2ncc3c(CN4CCCC4)cc(-c4ccc5c(c4)CN(C4CCC(=O)NC4=O)C5=O)nc32)C1 (centres unmarked)")
"60 to 80%"
>>> observed_value("Cn1ccc2c(CN3CCCC3)nc(-c3ccc4c(c3)CN(C3CCC(=O)NC3=O)C4=O)nc21 (centres unmarked)")
"20 to 40%"
>>> observed_value("Cn1ccc2nc(-c3ccc4c(c3)CN(C3CCC(=O)NC3=O)C4=O)cc(CN3CCC3)c21 (centres unmarked)")
"< 20%"
>>> observed_value("Cc1cc(-c2ccc3c(c2)CN(C2CCC(=O)NC2=O)C3=O)nc2nc(CN3CCCC3)oc12 (centres unmarked)")
"< 20%"
>>> observed_value("Cn1ncc2c(CN3CCCC3)cc(-c3ccc4c(c3)CN(C3CCC(=O)NC3=O)C4=O)nc21 (centres unmarked)")
"20 to 40%"
>>> observed_value("Cn1cc2nc(-c3ccc4c(c3)CN(C3CCC(=O)NC3=O)C4=O)cc(CN3CCCC3)c2n1 (centres unmarked)")
"20 to 40%"
>>> observed_value("O=C1CCC(N2Cc3cc(-c4cc(CN5CC6COCC(C6)C5)c5ccn(C6COC6)c5n4)ccc3C2=O)C(=O)N1 (centres unmarked)")
"< 20%"
>>> observed_value("O=C1CCC(N2Cc3cc(-c4cc(CN5CCCC5)c5c(ccn5CCCO)n4)ccc3C2=O)C(=O)N1 (centres unmarked)")
"20 to 40%"
>>> observed_value("O=C1CCC(N2Cc3cc(-c4cc(CN5CC(CO)C5)c5ccn(C6CC6)c5n4)ccc3C2=O)C(=O)N1 (centres unmarked)")
"20 to 40%"
>>> observed_value("O=C1CCC(N2Cc3cc(-c4cc(CN5CCCC5)c5ncn(C6CS(=O)(=O)C6)c5n4)ccc3C2=O)C(=O)N1 (centres unmarked)")
"< 20%"
>>> observed_value("CNc1n[nH]c2c(CN3CCCC3)cc(-c3ccc4c(c3)CN(C3CCC(=O)NC3=O)C4=O)nc12 (centres unmarked)")
"40 to 60%"
>>> observed_value("O=C1CCC(N2Cc3cc(-c4cc(CN5CCCC5)c5cc[nH]c5n4)ccc3C2=O)C(=O)N1 (centres unmarked)")
"20 to 40%"
>>> observed_value("O=C1CCC(N2Cc3cc(-c4cc(CN5CCCC5)c5[nH]ncc5n4)ccc3C2=O)C(=O)N1 (centres unmarked)")
"20 to 40%"
>>> observed_value("Cn1ccc2c(CN3CCN(S(C)(=O)=O)CC3)cc(-c3ccc4c(c3)CN(C3CCC(=O)NC3=O)C4=O)nc21 (centres unmarked)")
"< 20%"
>>> observed_value("COC[C@@H]1CCCN1Cc1cc(-c2ccc3c(c2)CN(C2CCC(=O)NC2=O)C3=O)nc2c1ccn2C1COC1 (some centres unmarked)")
"< 20%"
>>> observed_value("COc1n[nH]c2c(CN3CCCC3)cc(-c3ccc4c(c3)CN(C3CCC(=O)NC3=O)C4=O)nc12 (centres unmarked)")
"20 to 40%"
>>> observed_value("Cc1cc(-c2ccc3c(c2)CN(C2CCC(=O)NC2=O)C3=O)nc2c1CCN2CCO (centres unmarked)")
"< 20%"
>>> observed_value("COCCn1ccc2c(CN3CCCC3)cc(-c3ccc4c(c3)CN(C3CCC(=O)NC3=O)C4=O)nc21 (centres unmarked)")
"< 20%"
>>> observed_value("Cn1ccc2c(CN3CCC(C#N)CC3)cc(-c3ccc4c(c3)CN(C3CCC(=O)NC3=O)C4=O)nc21 (centres unmarked)")
"20 to 40%"
>>> observed_value("Cn1ccc2c(CN3CCCC3(C)C)cc(-c3ccc4c(c3)CN(C3CCC(=O)NC3=O)C4=O)nc21 (centres unmarked)")
"20 to 40%"
>>> observed_value("O=C1CCC(N2Cc3c(ccc(-c4cc(CN5CCCC5)c5ccn(C6COC6)c5n4)c3Cl)C2=O)C(=O)N1 (centres unmarked)")
"< 20%"
>>> observed_value("CC(C)Nc1ccnc2c(CN3CCCC3)cc(-c3ccc4c(c3)CN(C3CCC(=O)NC3=O)C4=O)nc12 (centres unmarked)")
"< 20%"
>>> observed_value("O=C1CCC(N2Cc3cc(-c4cc(CN5CCCC5)c5ccn(C6CS(=O)(=O)C6)c5n4)ccc3C2=O)C(=O)N1 (centres unmarked)")
"20 to 40%"
>>> observed_value("Nc1n[nH]c2c(CN3CC(O)C3)cc(-c3ccc4c(c3)CN(C3CCC(=O)NC3=O)C4=O)nc12 (centres unmarked)")
"20 to 40%"
>>> observed_value("O=C1CCC(N2Cc3cc(-c4nc(CN5CCCC5)c5ccn(C6COC6)c5n4)ccc3C2=O)C(=O)N1 (centres unmarked)")
"20 to 40%"
